Attribution: patent US6706664B1

system: green foxtail; test: Foliar spread test for upland field; assay type: in vivo, Setaria viridis; parameters: key: 0: normal development; 1: Less damaged; 2: Slightly damaged; 3: Moderately damaged; 4: Severely damaged; 5: All killed; conditions: foliar spray 500 ppm, 3 weeks, rank vs non-treated
quantity: Effects Green foxtail

{"columns": ["compound", "value-measured"],
 "data": [
  ["CCCC(Oc1ccc(F)c(C(F)(F)F)c1)c1nc2cc(Cl)ccc2o1 (stereo not drawn)", 4],
  ["CCCC(Oc1ccc(F)c(C(F)(F)F)c1)c1nc2ccc(C(F)(F)F)cc2o1 (stereo not drawn)", 2],
  ["CC(Oc1ccc(F)c(C(F)(F)F)c1)c1nc2cc(Cl)ccc2o1 (stereo not drawn)", 3],
  ["CCC(Oc1ccc(F)c(C(F)(F)F)c1)c1nc2cc([N+](=O)[O-])ccc2o1 (stereo not drawn)", 5],
  ["CCC(Oc1cccc(C(F)(F)F)c1)c1nc2cc(Cl)c(C)cc2o1 (stereo not drawn)", 2],
  ["CCC(Oc1ccc(F)c(C(F)(F)F)c1)c1nc2cc(Cl)c(C)cc2o1 (stereo not drawn)", 4],
  ["CCCC(Oc1ccc(F)c(C(F)(F)F)c1)c1nc2cc(C#N)c(C#N)cc2o1 (stereo not drawn)", 5],
  ["CCC(Oc1ccc(Cl)c(C(F)(F)F)c1)c1nc2cc(F)ccc2o1 (stereo not drawn)", 3],
  ["CCC(Oc1ccc(F)c(C(F)(F)F)c1)c1nc2cc(C(F)(F)F)ccc2o1 (stereo not drawn)", 5]
]}

###

Some molecules, each annotated with its measured Effect Bulrush.
tested on: bulrush; assay: Herbicidal test for paddy field; format: in vivo, Scrips juncoides; set-up: key: 0: normal development; 1: Less damaged; 2: Slightly damaged; 3: Moderately damaged; 4: Severely damaged; 5: All killed; conditions: paddy field pot, 500 g/ha dropwise at 1.5 leaf stage of barnyardgrass, 3 weeks, rank vs non-treated

{"columns": ["molecule", "target-of-assay", "Effect Bulrush"],
 "data": [
  ["CCC(Oc1cccc(C#N)c1)c1nc2cc(F)c(Cl)cc2o1 (stereo not drawn)", "bulrush", 3],
  ["CCCC(Oc1cccc(C#N)c1)c1nc2cc(C#N)ccc2o1 (stereo not drawn)", "bulrush", 5],
  ["CCC(Oc1cccc(C(F)(F)F)c1)c1nc2cc(F)ccc2o1 (stereo not drawn)", "bulrush", 3],
  ["CCC(Oc1ccc(F)c(C(F)(F)F)c1)c1nc2cc(C#N)c(F)cc2o1 (stereo not drawn)", "bulrush", 5],
  ["CCCC(Oc1cccc(C#N)c1)c1nc2cc(S(C)(=O)=O)c(C)cc2o1 (stereo not drawn)", "bulrush", 3],
  ["CCC(Oc1cccc(C(F)(F)F)c1)c1nc2cc(C(F)(F)F)ccc2o1 (stereo not drawn)", "bulrush", 1],
  ["CCCC(Oc1cccc(C(F)(F)F)c1)c1nc2cc(Cl)ccc2o1 (stereo not drawn)", "bulrush", 3],
  ["CCC(Oc1ccc(F)c(C(F)(F)F)c1)c1nc2ccc(F)cc2o1 (stereo not drawn)", "bulrush", 4],
  ["CC(Oc1ccc(F)c(C(F)(F)F)c1)c1nc2cc(Cl)ccc2o1 (stereo not drawn)", "bulrush", 3]
]}

###

This section presents compounds with their documented Effects Barnyardgrass values.
test system: barnyardgrass; assay: Soil treatment test for upland field; format: in vivo, Echinochloa crusgalli; parameters: key: 0: normal development; 1: Less damaged; 2: Slightly damaged; 3: Moderately damaged; 4: Severely damaged; 5: All killed; conditions: 500 g/ha, glass house 25° C., 3 weeks
quantity: Effects Barnyardgrass

{"columns": ["compound", "target-of-assay", "value-measured"],
 "data": [
  ["CCC(Oc1ccc(F)c(C(F)(F)F)c1)c1nc2ccc(C(F)(F)F)cc2o1 (stereo not drawn)", "barnyardgrass", 4],
  ["CCC(Oc1cccc(C(F)(F)F)c1)c1nc2cc(F)ccc2o1 (stereo not drawn)", "barnyardgrass", 4],
  ["CCC(Oc1cccc(C(F)(F)F)c1)c1nc2ccc(Cl)cc2o1 (stereo not drawn)", "barnyardgrass", 2],
  ["CCC(Oc1cccc(C(F)(F)F)c1)c1nc2cc(C#N)c(C#N)cc2o1 (stereo not drawn)", "barnyardgrass", 4],
  ["CCC(Oc1cccc(OC(F)(F)F)c1)c1nc2cc([N+](=O)[O-])ccc2o1 (stereo not drawn)", "barnyardgrass", 5],
  ["CCCC(Oc1ccc(F)c(C(F)(F)F)c1)c1nc2cc(C#N)c(Cl)cc2o1 (stereo not drawn)", "barnyardgrass", 3]
]}
